Biological target: metabotropic glutamate receptor (mGluR5) (Homo sapiens)
Sequence (P41594 21-1212): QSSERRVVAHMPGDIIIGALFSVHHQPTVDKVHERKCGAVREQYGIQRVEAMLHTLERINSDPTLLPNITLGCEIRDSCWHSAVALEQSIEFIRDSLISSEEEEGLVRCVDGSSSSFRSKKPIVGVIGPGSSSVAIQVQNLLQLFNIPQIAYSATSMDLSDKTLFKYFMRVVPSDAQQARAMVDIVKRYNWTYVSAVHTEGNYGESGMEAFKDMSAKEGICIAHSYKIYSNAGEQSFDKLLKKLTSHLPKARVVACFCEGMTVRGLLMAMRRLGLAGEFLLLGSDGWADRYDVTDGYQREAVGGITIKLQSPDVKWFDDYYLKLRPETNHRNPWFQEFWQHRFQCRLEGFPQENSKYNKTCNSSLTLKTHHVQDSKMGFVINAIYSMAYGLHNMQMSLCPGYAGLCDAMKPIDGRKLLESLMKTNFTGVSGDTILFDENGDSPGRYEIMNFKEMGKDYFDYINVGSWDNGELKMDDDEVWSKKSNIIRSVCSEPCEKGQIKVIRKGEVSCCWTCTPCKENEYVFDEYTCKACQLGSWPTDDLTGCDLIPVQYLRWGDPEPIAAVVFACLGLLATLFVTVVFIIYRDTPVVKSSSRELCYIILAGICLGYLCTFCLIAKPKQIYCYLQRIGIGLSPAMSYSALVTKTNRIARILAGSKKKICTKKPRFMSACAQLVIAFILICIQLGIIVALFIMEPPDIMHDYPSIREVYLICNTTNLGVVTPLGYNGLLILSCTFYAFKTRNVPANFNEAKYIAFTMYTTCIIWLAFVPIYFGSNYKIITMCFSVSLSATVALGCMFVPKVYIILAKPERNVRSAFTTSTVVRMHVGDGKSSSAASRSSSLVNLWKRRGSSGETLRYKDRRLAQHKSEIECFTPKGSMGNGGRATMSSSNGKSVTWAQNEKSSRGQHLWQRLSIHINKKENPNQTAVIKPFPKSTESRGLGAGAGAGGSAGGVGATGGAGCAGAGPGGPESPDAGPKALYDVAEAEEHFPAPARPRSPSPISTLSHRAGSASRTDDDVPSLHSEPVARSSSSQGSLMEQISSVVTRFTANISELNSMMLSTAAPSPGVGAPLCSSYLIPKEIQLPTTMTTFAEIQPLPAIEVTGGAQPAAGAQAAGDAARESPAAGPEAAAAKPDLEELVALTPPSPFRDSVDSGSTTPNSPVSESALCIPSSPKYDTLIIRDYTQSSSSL
Test: Cytosolic calcium studies with stably transfected cells (FLIPR)
Conditions: CHO-K1 cells with human mGluR5, agonist L-quisqualic acid; read-out: mGluR5_FLIPR_h_CHONAM_IC50
endpoint_name: IC50 (nM)
Expressed in nM, but write only the number.

Response field IC50 (metabotropic glutamate receptor (mGluR5) (Homo sapiens)) for item O=C(c1cc2ncc(Br)cn2n1)N1CC=C(c2ccccc2)CC1 : 493

Where do the numbers come from? From patent US20080032998A1.
